These entries and their values trace back to PubChem BioAssay AID1508601.

- system: Cellular tumor antigen p53 (Homo sapiens) (UniProt P04637)
- Sequence (P04637 whole entry, looked up): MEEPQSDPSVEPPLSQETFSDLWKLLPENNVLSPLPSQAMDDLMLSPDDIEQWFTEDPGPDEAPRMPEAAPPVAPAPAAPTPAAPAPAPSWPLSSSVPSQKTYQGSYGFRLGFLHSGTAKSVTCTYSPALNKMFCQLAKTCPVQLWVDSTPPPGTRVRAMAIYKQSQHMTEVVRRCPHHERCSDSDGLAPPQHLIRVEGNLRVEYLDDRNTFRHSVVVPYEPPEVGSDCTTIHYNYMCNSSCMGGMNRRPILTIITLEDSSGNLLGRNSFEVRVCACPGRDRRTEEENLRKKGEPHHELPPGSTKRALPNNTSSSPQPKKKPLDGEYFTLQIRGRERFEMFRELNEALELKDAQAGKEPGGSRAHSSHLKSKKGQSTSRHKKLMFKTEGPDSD
- measurement-protocol: nuclear p53 accumulation, HPV+ cells – imaging, p53-positive nuclei imaging, 24 h, 48 h (AID 1508601)
- condition-info: 24/48 h, measured here: p53 positive nuclei at 24 h, Library stock concentration: 41 uM, stronger effect = higher value
The campaign covered roughly 5,700 compounds. About 85 (1%) were called active. For the sample, actives were picked, then their nearest neighbours and some compounds at random.
Please respond with reported p53-positive nuclei, normalised for every item in the list.
Numbers only, in %.

Field: example entries. Status: answers known.
C=C1C(=O)OC(CCCCCCCC)C1C(=O)O (stereo not drawn)	0.0028
CCOC(=O)c1sc(NC(=O)c2ccco2)c(SC#N)c1C	-0.122
CCCCCCCCCCCCCC=CC(O)C(CO)N(C)C (stereo not drawn)	-0.0213

Please state p53-positive nuclei, normalised for every compound in the list that follows.
1. Nc1ccn(C2OC(CO)C(O)C2F)c(=O)n1 (stereo not drawn)
2. COc1ccc(N2C(=O)C(=Cc3ccc([N+](=O)[O-])s3)SC2=S)cc1
3. OCC1OC(n2cnc3c2NC=NCC3O)CC1O (stereo not drawn)
4. COC(=O)C#Cc1ccc([N+](=O)[O-])cc1
5. N#CSc1cc(SC#N)c(N)nc1N

[0.108, 0.0741, -0.0912, 0.0546, 0.497]

* * *

Please respond with reported nuclei count, normalised for every item in the list.
- measurement-protocol: nuclear p53 accumulation, HPV+ cells – imaging, p53-positive nuclei imaging, 24 h, 48 h (AID 1508601)
- condition-info: 24/48 h, measured here: cell number at 48 h, concentration not given here
Out of some 5,700 compounds screened, about 85 (1%) were called active. The sample holds actives, similar compounds and a random draw of the others, so the mix is not that of the screen.
Answers are plain numbers, in %.

Field: example entries. Status: answers known.
Cn1cc(C2=C(c3cn(CCCSC(=N)N)c4ccccc34)C(=O)NC2=O)c2ccccc21	104
CCCCC/C=C/C=C1/C=CC(=O)[C@@H]1C/C=C\CCCC(=O)O	102
CCCCCCCCNC(=O)Cc1c(C)n(C(=O)c2ccc(Cl)cc2)c2ccc(OC)cc12	112
O=C(O)CCCCCCCCCCCNC(=O)NC12CC3CC(CC(C3)C1)C2	113
CCCCC[C@H](O)/C=C/[C@H]1[C@H](O)CC(=O)[C@@H]1C/C=C\CCCC(=O)Oc1ccc(NC(C)=O)cc1	115

Please state nuclei count, normalised for every compound in the list that follows.
1. COc1ccc(CN2CCN(c3nccc(-c4c(C)nn(C)c4C)n3)CC2=O)cc1
2. O=Nc1c(-c2c(O)[nH]c3cc(Br)ccc23)[nH]c2ccccc12
3. CCCCC/C=C\C/C=C\C/C=C\C/C=C\CCCC(=O)C(F)(F)F
4. C#C[C@]1(O)CCC2C3CCc4cc(O)ccc4C3CC[C@@]21C (some centres not stated)
5. Cn1cc(C2=C(c3cn(CCCN)c4ccccc34)C(=O)NC2=O)c2ccccc21
6. Cc1cc(C)c(/C=C2\C(=O)Nc3ccccc32)[nH]1
7. O=C1CN(c2ncnc3sccc23)CCN1Cc1ccc(F)cc1

105
113
109
37.7
106
102
111

Please state nuclei count, normalised for every compound in the list that follows.
1. CN(CC1COc2ccccc2O1)C(=O)Nc1nncs1 (configuration not stated)
2. COc1nccnc1-c1ccc2c(c1)OCO2
3. O=C(O)CCC/C=C\C[C@@H]1[C@@H](/C=C/[C@@H](O)COc2ccccc2)[C@H](O)C[C@@H]1O
4. c1nc(-c2ccc3c(c2)OCCO3)c2sccc2n1
5. CC(C)OC(=O)CCC/C=C\C[C@@H]1[C@@H](/C=C/[C@@H](O)CCc2ccccc2)[C@H](O)C[C@@H]1O

1. 104
2. 114
3. 102
4. 38.4
5. 105

* * *

Please respond with reported p53-positive nuclei, normalised for every item in the list.
- system: Cellular tumor antigen p53 (Homo sapiens)
- measurement-protocol: nuclear p53 accumulation, HPV+ cells – imaging, p53-positive nuclei imaging, 24 h, 48 h (AID 1508601)
- condition-info: 24/48 h, measured here: p53 positive nuclei at 24 h, Library stock concentration: 3.33 mM, stronger effect = higher value
Among all 5,700 compounds or so, about 85 (1%) were called active. The sample as a whole holds a higher share of actives than the screen did.
Answers are plain numbers, in %.

Field: example entries. Status: answers known.
Cc1cc(OCc2nnc(SC3CCCC3)n2-c2cccnc2)ccc1-c1ccc(S(C)(=O)=O)cc1	0.345
CN(C)c1ccc(C(=O)NCCCCCCC(=O)NO)cc1	45
Cc1nc(Nc2n[nH]c3c2CN(C(=O)NC(CN(C)C)c2ccccc2)C3(C)C)c2sccc2n1 (stereo not drawn)	6.89

Please state p53-positive nuclei, normalised for every compound in the list that follows.
1. O=C(C=Cc1ccc(CN(CCO)CCc2c[nH]c3ccccc23)cc1)NO
2. O=C(NN=Cc1ccc(O)c(O)c1)c1cc2ccccc2cc1O
3. CC(=O)OC1C(=O)[C@]2(C)C(O)CC3OC[C@@]3(OC(C)=O)C2C(OC(=O)c2ccccc2)[C@]2(O)CC(OC(=O)C(O)C(NC(=O)c3ccccc3)c3ccccc3)C(C)=C1C2(C)C (stereo partly drawn)
4. CCC(C(C)O)n1ncn(-c2ccc(N3CCN(c4ccc(OCC5CO[C@@](Cn6cncn6)(c6ccc(F)cc6F)C5)cc4)CC3)cc2)c1=O (stereo partly drawn)
5. CC(NC(=O)C(Cc1ccccc1)NC(=O)OCc1ccccc1)C(=O)CF (stereo not drawn)
6. CN(C)CCCn1cc(C2=C(c3c[nH]c4ccccc34)C(=O)NC2=O)c2ccccc21
7. C=CC(=O)Nc1cccc(Oc2nc(Nc3ccc(N4CCN(C)CC4)cc3)ncc2Cl)c1

1. 94.4
2. -0.25
3. -0.232
4. -0.171
5. -0.116
6. -0.293
7. -0.375

Please state p53-positive nuclei, normalised for every compound in the list that follows.
1. CC(C)CC(=O)Nc1n[nH]c2c1CN(C(=O)C1CCN(C)CC1)C2(C)C
2. O=C(CCCCCCC(=O)Nc1ccccc1)NO
3. CC(O)[C@H]1C(=O)N2C(C(=O)OCOC(=O)C(C)(C)C)=C(SC3CN(C4=NCCS4)C3)C(C)[C@@H]12 (stereo partly drawn)

13.5
8.5
-0.252

Please state p53-positive nuclei, normalised for every compound in the list that follows.
1. CCC(=O)O[C@@]1(C(=O)CCl)C(C)C[C@H]2[C@@H]3CC(F)C4=CC(=O)C=C[C@]4(C)[C@]3(F)C(O)C[C@@]21C (stereo partly drawn)
2. COc1cc(C(=O)NS(=O)(=O)c2ccccc2C)ccc1Cc1cn(C)c2ccc(NC(=O)OC3CCCC3)cc12

-0.278
-0.167

Please state p53-positive nuclei, normalised for every compound in the list that follows.
1. COc1ccc(-c2ccc3ncc4c(c3c2)n(-c2ccc(N3CCNCC3)c(C(F)(F)F)c2)c(=O)n4C)cn1
2. COc1ccc(Cn2ccc3ccc(C(=O)NO)cc32)cc1
3. O=C(O)CCNC(=O)c1ccccc1

3.51
-0.209
-0.327

Please state p53-positive nuclei, normalised for every compound in the list that follows.
1. O=C(NOCC(O)CO)c1ccc(F)c(F)c1Nc1ccc(I)cc1F (stereo not drawn)
2. O=C(Nc1ccccc1Br)NC1CCN(c2ccc(C(F)(F)F)cn2)C1 (stereo not drawn)

1. -0.375
2. -0.314

Please state p53-positive nuclei, normalised for every compound in the list that follows.
1. O=C(C=Cc1cccc(S(=O)(=O)Nc2ccccc2)c1)NO
2. C[C@]12CC[C@H]3c4ccc(O)cc4CC[C@H]3[C@@H]1CCC2=O
3. O=C(C=Cn1cnc(-c2cc(C(F)(F)F)cc(C(F)(F)F)c2)n1)N1CC(F)(F)C1

1: 51; 2: -0.211; 3: -0.238

* * *

- system: Cellular tumor antigen p53 (Homo sapiens)
- measurement-protocol: nuclear p53 accumulation, HPV+ cells – imaging, p53-positive nuclei imaging, 24 h, 48 h (AID 1508601)
- condition-info: 24/48 h, Library stock concentration: 500 nM, stronger effect = higher value
The whole screen tested about 5,700 compounds, of which about 85 (1%) were called active. This is one part of a sample in which actives are shown more often than they occur.
Please respond with reported p53-positive nuclei, normalised for every item in the list.
Numbers only, in %.

Field: example entries. Status: answers known.
CCCCCCCCCCCCCC=CC(O)C(CO)N(C)C (stereo unspecified)	-0.17
CCOC(=O)c1sc(NC(=O)c2ccco2)c(SC#N)c1C	0.102
CC(=O)OC1C(=O)[C@]2(C)C(O)CC3OC[C@@]3(OC(C)=O)C2C(OC(=O)c2ccccc2)[C@]2(O)CC(OC(=O)C(O)C(NC(=O)c3ccccc3)c3ccccc3)C(C)=C1C2(C)C (stereo partly specified)	0.615
OC(c1cc(C(F)(F)F)nc2c(C(F)(F)F)cccc12)[C@H]1CCCCN1 (stereo partly specified)	-0.00517
Nc1ccn(C2C=C(CO)C(O)C2O)c(=O)n1 (stereo unspecified)	-0.14
O=C(O)c1ccccc1SC1=NS(=O)(=O)c2ccccc21	-0.176

Please state p53-positive nuclei, normalised for every compound in the list that follows.
1. C=C1C(=O)OC(CCCCCCCC)C1C(=O)O (stereo unspecified)
2. CN(NC(=O)CC(=O)NN(C)C(=S)c1ccccc1)C(=S)c1ccccc1
3. CC(=O)NC(CSC(=S)NSc1ccc(SNC(=S)SCC(NC(C)=O)C(=O)O)cc1)C(=O)O (stereo unspecified)
4. OCC1OC(n2cnc3c2NC=NCC3O)CC1O (stereo unspecified)

1. 0.247
2. 0.0337
3. -0.0484
4. -0.173

Entry under review: Nc1ccn(C2OC(CO)C(O)C2F)c(=O)n1 (stereo unspecified) . Reported p53-positive nuclei, normalised? -0.105
